biological target: Cytochrome P450 2D6 (Homo sapiens, UniProt P10635); assay: qHTS Assay for Inhibitors and Substrates of Cytochrome P450 2D6. [Related pubchem assays: 410 ]; format: ADME; conditions: human; read-out: Potency
Sequence (P10635 whole entry): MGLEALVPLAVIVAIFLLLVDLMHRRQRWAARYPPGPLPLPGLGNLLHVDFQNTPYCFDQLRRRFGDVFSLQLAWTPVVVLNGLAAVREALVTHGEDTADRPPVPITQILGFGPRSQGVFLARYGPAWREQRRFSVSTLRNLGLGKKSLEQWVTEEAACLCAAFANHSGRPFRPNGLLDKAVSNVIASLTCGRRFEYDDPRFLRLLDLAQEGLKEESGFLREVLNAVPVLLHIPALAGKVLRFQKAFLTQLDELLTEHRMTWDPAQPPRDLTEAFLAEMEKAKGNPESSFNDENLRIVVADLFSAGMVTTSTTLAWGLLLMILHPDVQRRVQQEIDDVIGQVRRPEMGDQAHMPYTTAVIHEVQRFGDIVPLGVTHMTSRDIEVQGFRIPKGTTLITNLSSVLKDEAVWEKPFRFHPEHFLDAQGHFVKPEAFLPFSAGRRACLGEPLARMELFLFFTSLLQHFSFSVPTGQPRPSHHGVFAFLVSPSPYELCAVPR
reportedProperty: AC50

Could you share which AC50 value was measured for C=CC1=C(C)c2cc3[nH]c(cc4nc(cc5[nH]c(cc1n2)c(C)c5CCC(=O)O)C(CCC(=O)O)=C4C)c(C)c3C=C ?
25.1 µM (inconclusive)

----------
biological target: Caspase-3 (Homo sapiens); test: SAR Analysis of small molecule inhibitors of Sentrin-specific proteases (SENPs) using a Caspase-3 Selectivity assay. [Related pubchem assays (depositor defined):AID2540, AID2599, AID434973, AID489001]; format: functional
Calls of active or inactive are those of the source.
Respond using exactly one of the listed classes: true (1) = active, false (0) = inactive

Worked examples follow.
{"mol": "O=C(O)CCN1C(=O)/C(=C/c2cccc(OCC(=O)Nc3ccc(Cl)cc3)c2)SC1=S", "assignedCategory": "false (0)"}
{"mol": "Fc1ccc(N/N=C/c2c[nH]c3ccccc23)cc1", "assignedCategory": "false (0)"}
{"mol": "COc1ccc(C(=O)NN=c2c(=O)c3ccccc3c2=O)cc1", "assignedCategory": "false (0)"}
{"mol": "O=C(Nc1ccc(F)cc1)c1ccc2c(c1)OCO2", "assignedCategory": "true (1)"}

Name the outcome recorded for COc1ccc2c(C#N)c3ccccn3c2c1 in the assay.
true (1)

----------
target: Peroxisome proliferator-activated receptor gamma/Nuclear receptor coactivator 2 (Homo sapiens, UniProt P37231); format: functional;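 further: agonist potency for raising coactivator recruitment to the receptor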
reportedProperty: EC50

Recorded results for 3 compounds are shown here.
{"compound": "Cc1cccn2c(=O)c3cc(C(=O)NCCN4CCOCC4)c(=N)n(CCc4ccccc4)c3nc12", "EC50": "> 79.4 µM (not active)"}
{"compound": "O=C1OCCC1Sc1nnc(-c2ccc(Br)cc2)o1 (centres undefined)", "EC50": "75.3 µM (not active)"}
{"compound": "O=C(c1ccccc1)c1cnc(-c2ccc(Cl)cc2)s1", "EC50": "11.9 µM (not active)"}

Continue with the compound presented below.
Any idea what its EC50 is? The compound is NS(=O)(=O)c1ccc(NC(=S)NCc2ccc(Cl)cc2)cc1
> 79.4 µM (not active)

----------
target: Replicative DNA helicase DnaB (Mycobacterium tuberculosis, UniProt P9WMR3); assay: DnaB intein splicing inhibitors, dose response, biochemical, cell-free fluorescence (AID 449749); format: functional
Active and inactive are the calls of the source.
Just give me one of these, please: active, inactive

Would you please look over these solved cases?
{"molecule": "Cc1n[nH]c(O)c1C(c1ccc(Br)cc1)c1c(C)n[nH]c1O", "system": "Replicative DNA helicase DnaB (Mycobacterium tuberculosis, UniProt P9WMR3)", "assignedCategory": "active"}
{"molecule": "O=C(CCCN1C(=O)S/C(=C\\C=C\\c2ccccc2)C1=O)Nc1ccc(C(=O)O)cc1", "system": "Replicative DNA helicase DnaB (Mycobacterium tuberculosis, UniProt P9WMR3)", "assignedCategory": "active"}

Dear colleague, could you share the recorded outcome for CS/C(=C\[N+](=O)[O-])Nc1ccc(Cl)cc1 when you have a moment?
active

Can you look up the reported call for COc1ccc(/C=C/C(=O)c2ccc(O)cc2)cc1COc1ccc(F)cc1 for me?
inactive

Please let me know the test result on file for O=C(NC1CCCCC1)C(c1cccnc1)N(C(=O)CCl)c1ccc(F)cc1 (stereo not given) .
active

I'd appreciate the recorded outcome for COc1ccc(O)c(C(c2c(C)[nH][nH]c2=O)c2c(C)[nH][nH]c2=O)c1 from this test.
active

Can you look up the reported call for COc1ccc(Nc2oc(COc3ccccc3F)nc2C#N)cc1 for me?
active

Just curious, what result did O=c1oc(-c2ccccc2Cl)nc2ccsc12 get here?
active

Tell me the assay call for N#Cc1ccc(-n2c(-c3ccccc3)nnc2-c2ccccc2)cc1C#N please.
active

Recorded call for CC(C)(C)c1cc(C(=O)CCN2CCOCC2)cc(C(C)(C)C)c1O ?
active

Hey, what did the test say about COc1ccccc1Nc1cc2cc(Br)ccc2c(=O)[nH]1 ?
inactive

----------
Reported IC50 is given for each of the following compounds.
target: DNA dC->dU-editing enzyme APOBEC-3G (Homo sapiens, UniProt Q9HC16); test: Dose Response confirmation of small molecule APOBEC3G DNA Deaminase Inhibitors via a fluorescence-based single-stranded DNA deaminase assay. [Related pubchem assays (depositor defined):AID493012, AID493028]; assay type: functional
Sequence (Q9HC16 whole entry): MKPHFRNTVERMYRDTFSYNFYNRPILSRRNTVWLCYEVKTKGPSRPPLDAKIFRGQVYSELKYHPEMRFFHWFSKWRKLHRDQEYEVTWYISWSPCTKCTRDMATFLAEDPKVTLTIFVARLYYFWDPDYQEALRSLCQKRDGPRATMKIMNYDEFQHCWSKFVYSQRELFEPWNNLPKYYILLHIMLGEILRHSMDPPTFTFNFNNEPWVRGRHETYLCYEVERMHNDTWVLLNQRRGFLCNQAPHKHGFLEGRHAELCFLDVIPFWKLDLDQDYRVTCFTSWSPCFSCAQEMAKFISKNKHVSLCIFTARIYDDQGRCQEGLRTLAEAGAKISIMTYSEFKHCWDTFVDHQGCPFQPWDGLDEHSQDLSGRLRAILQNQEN
Activity calls are given as the source filed them.

Worked examples follow.
{"mol": "Cc1ccc(-n2c(-c3ccco3)n[nH]c2=S)cc1", "IC50": "4.57 µM (active)"}
{"mol": "O=S(=O)(Nc1ccc(O)c(NS(=O)(=O)c2ccccc2)c1)c1ccccc1", "IC50": "55.1 µM (active)"}
{"mol": "Cc1cc(=O)n2nc(-c3ccccc3)sc2c1C#N", "IC50": "39.2 µM (active)"}

Consider now this further compound.
What does the data say about its IC50? Entry: CCOCCCn1c(S)nnc1-c1ccc(Cl)cc1
13.8 µM (active)

----------
experiment: inhibitors of clade B AD8 Env fusion, dose response, cell-based, cherry-pick (AID 652062); format: functional;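 further: luciferase signal from cell-cell fusion driven by HIV-1 clade B AD8 Env; potency is for inhibitors of fusion seen as a drop in luminescence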
Calls of active or inactive are those of the source.
reportedProperty: AC50

{"mol": "COc1ccc(NC(=O)Nc2ccc3c(c2)CC(=O)N([C@H](C)CO)C[C@H](C)[C@H](CN(C)S(=O)(=O)c2cccs2)O3)cc1", "result": "5.21 µM (active)"}
{"mol": "O=C(N(c1ccccn1)c1ccccn1)C12CC3CC(CC(Cl)(C3)C1)C2", "result": "9.92 µM (active)"}
{"mol": "Cc1cc2ncn(S(=O)(=O)N3CCCCC3)c2cc1C", "result": "60.6 µM (active)"}

Now for another entry.
What value of AC50 has been recorded for this entry: C[C@H](CO)N1C[C@H](C)[C@H](CN(C)S(=O)(=O)c2ccccc2)Oc2ccc(NC(=O)Cc3ccccc3)cc2CC1=O
< 0.26 µM (active)

----------
molecular target: Estrogen receptor beta (Homo sapiens, UniProt Q92731); experiment: ERβ–SRC-3 coactivator interaction inhibitors, confirmation, orthogonal assay, biochemical, ELISA, streptavidin-HRP readout (AID 1060)
Sequence (Q92731 whole entry): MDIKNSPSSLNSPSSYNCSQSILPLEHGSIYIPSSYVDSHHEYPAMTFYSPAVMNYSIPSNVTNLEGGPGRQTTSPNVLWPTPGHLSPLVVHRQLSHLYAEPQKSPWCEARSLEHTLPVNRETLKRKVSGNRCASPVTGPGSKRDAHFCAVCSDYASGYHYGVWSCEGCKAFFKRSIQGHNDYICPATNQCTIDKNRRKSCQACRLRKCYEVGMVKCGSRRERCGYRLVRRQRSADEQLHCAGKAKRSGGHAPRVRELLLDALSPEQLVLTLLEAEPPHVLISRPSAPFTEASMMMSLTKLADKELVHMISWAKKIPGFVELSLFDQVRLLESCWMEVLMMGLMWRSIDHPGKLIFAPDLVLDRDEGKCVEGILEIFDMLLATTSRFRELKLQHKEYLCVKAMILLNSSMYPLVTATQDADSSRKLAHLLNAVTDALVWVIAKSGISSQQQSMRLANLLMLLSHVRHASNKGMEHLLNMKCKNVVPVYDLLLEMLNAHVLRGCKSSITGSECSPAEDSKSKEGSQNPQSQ
reportedProperty: IC50

{"molecule": "Cc1cc(C)c(C(=O)COc2cccnc2[N+](=O)[O-])cc1C", "IC50": "> 50 µM (not active)"}
{"molecule": "CSC1=N/C(=C\\c2ccc(Br)o2)C(=O)S1", "IC50": "< 0.023 µM (not active)"}
{"molecule": "O=C1N=C(S)SC1=C1CCCC1", "IC50": "0.24 µM (not active)"}
{"molecule": "CC(C)CN(C(=O)COC(=O)c1cc2c(s1)CCC2)C1CCS(=O)(=O)C1 (stereo not given)", "IC50": "1.94 µM (not active)"}

Consider now this further molecule.
Which measured IC50 value corresponds to COCCOC(=O)c1c(C)oc2ccc(NS(=O)(=O)c3ccc(C(=O)O)cc3)cc12 ?
3.82 µM (not active)

----------
Items are presented alongside their recorded IC50.
target: UniProtKB P49327; experiment: FAS thioesterase domain inhibitors, dose response, biochemical, endpoint fluorescence intensity, uHTS hits (AID 624327); assay type: functional;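 further: fluorescence from hydrolysis of an O-methyl fluorescein acyl ester substrate by the enzyme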
Sequence (P49327 whole entry, the tested form may be a part): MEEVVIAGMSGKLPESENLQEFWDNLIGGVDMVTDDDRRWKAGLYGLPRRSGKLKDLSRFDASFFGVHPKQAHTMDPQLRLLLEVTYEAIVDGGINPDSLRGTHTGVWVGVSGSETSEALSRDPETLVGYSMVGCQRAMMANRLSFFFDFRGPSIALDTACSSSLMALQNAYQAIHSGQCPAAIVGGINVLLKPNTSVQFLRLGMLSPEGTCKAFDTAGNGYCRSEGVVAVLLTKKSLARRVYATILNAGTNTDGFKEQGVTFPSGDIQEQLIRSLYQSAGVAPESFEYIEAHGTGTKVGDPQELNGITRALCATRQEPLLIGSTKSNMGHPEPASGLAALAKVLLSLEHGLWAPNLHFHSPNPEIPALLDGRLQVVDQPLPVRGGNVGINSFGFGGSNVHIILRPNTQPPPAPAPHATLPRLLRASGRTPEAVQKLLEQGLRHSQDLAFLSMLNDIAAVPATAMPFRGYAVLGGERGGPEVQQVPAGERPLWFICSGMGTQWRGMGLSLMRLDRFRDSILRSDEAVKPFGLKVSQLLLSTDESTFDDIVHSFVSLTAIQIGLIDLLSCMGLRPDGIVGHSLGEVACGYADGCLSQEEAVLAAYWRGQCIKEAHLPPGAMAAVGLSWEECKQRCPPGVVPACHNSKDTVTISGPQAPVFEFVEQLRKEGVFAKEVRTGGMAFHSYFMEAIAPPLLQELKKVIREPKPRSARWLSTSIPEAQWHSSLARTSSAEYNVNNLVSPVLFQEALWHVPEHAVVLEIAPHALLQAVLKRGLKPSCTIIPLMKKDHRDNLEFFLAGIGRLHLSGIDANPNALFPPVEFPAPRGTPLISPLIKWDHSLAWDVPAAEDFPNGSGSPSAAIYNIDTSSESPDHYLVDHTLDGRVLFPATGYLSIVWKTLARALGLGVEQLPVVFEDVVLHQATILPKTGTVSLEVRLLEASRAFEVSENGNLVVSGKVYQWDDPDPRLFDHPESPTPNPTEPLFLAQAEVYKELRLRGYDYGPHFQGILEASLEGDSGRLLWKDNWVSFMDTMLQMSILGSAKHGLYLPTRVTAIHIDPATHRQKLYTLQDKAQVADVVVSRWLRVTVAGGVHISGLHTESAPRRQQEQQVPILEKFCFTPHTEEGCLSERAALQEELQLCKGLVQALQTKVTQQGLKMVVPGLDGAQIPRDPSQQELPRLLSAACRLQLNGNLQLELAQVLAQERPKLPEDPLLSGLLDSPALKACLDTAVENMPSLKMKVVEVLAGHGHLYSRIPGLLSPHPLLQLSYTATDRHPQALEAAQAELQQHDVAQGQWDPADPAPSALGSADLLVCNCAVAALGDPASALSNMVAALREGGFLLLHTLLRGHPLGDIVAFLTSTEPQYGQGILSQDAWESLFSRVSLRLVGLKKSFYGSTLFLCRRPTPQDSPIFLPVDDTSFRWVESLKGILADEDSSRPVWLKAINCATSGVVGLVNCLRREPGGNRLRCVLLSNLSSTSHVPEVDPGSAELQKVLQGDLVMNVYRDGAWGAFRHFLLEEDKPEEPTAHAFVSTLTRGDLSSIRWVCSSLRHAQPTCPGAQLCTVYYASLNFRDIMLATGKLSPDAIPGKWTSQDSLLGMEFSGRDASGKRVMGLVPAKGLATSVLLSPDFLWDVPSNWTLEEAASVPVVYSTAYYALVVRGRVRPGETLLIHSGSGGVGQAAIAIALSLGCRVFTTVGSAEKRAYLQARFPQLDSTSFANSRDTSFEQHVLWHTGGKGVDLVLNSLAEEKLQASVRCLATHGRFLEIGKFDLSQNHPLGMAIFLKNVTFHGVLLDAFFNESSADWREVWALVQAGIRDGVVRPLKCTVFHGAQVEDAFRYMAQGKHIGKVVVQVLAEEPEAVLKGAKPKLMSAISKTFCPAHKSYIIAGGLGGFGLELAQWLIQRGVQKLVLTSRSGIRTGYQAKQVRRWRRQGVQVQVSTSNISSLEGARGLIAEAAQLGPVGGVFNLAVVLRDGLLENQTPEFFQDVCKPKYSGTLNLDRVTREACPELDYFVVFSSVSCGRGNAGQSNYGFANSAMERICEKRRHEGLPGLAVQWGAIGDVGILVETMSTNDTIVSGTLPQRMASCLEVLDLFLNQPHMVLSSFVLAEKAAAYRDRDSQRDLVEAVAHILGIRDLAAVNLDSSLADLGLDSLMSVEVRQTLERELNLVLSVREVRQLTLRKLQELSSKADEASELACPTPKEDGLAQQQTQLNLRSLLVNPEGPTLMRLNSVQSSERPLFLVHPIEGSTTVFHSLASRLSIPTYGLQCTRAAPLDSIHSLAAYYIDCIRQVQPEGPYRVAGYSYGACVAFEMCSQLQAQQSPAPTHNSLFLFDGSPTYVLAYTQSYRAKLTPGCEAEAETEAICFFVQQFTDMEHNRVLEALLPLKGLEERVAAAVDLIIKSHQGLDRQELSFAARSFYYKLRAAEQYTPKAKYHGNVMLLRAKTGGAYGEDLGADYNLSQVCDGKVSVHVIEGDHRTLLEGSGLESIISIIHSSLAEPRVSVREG
Active and inactive are the calls of the source.

Example cases with answers are listed next.
{"mol": "CCOC(=O)C1CCN(C(=O)COC(=O)c2cc([N+](=O)[O-])ccc2N2CCOCC2)CC1", "IC50": "4.15 µM (active)"}
{"mol": "O=C(/C=C/c1cc([N+](=O)[O-])ccc1OC(F)F)NCc1ccc(Cl)cc1", "IC50": "0.351 µM (active)"}

Form field: reported IC50 of CCCCCC(=O)OCc1ccc(C2=CC(=O)CC(C)(C)C2=O)cc1
7.22 µM (active)

May I ask what IC50 has been recorded for O=C(N/N=C/c1cc([N+](=O)[O-])ccc1O)/C(=C\c1cccs1)NC(=O)c1ccccc1 ?
15.2 µM (active)

Param item = O=S(=O)(c1cccs1)N1CCN(Cc2nc(O)c3cc(Br)cc(Br)c3n2)CC1 ; retrieve measured IC50.
12.5 µM (active)

----------
AC50 tested on Cytochrome P450 2D6 (Homo sapiens): recorded values

{"molecule": "COC(=O)c1cccc(NC(=O)Nc2ccc(Cl)c(Cl)c2)c1", "reportedProperty": "AC50", "result": "22.4 µM (inconclusive)"}

Requested read-out AC50, target or system Cytochrome P450 2D6 (Homo sapiens), entry O=C(COc1ccccc1)Nc1cc(C(F)(F)F)ccc1N1CCCC1
17.8 µM (inconclusive)

Report AC50 for Nc1cccc2cnccc12 tested on Cytochrome P450 2D6 (Homo sapiens).
22.4 µM (inconclusive)

Please provide the recorded AC50 for CCC(C)c1ccc(Nc2ncccc2C#N)cc1 (stereo not drawn) , tested on Cytochrome P450 2D6 (Homo sapiens).
28.2 µM (inconclusive)
